test system: Staphylococcus aureus; test: Antimicrobial activity against Staphylococcus aureus ATCC 29213; type: functional
endpoint_label: MIC (µg/mL)
Report the value in µg/mL with no unit label.

Here's what some known entries look like.
- compound: "Cc1ccc(S(=O)(=O)N2C(=O)C(Cl)[C@H]2c2cccc(F)c2)cc1 (some centres undefined)"
  assayed_target: "Staphylococcus aureus"
  observed_value: 8
- compound: "Cc1ccc(S(=O)(=O)N2C(=O)C(Cl)[C@H]2c2ccc(F)cc2)cc1 (some centres undefined)"
  assayed_target: "Staphylococcus aureus"
  observed_value: 1
- compound: "Cc1ccc(S(=O)(=O)N2C(=O)C(Cl)[C@H]2c2ccccc2F)cc1 (some centres undefined)"
  assayed_target: "Staphylococcus aureus"
  observed_value: 4

// next item, MIC requested
The measured MIC associated with CC1(C)S[C@@H]2[C@H](NC(=O)[C@H](N)c3ccccc3)C(=O)N2[C@H]1C(=O)O reads 2

All values here come from ChEMBL document CHEMBL5107966.
